Target: AaDOP2 (Aedes aegypti, UniProt H6D5H2)
Sequence (H6D5H2 1-476): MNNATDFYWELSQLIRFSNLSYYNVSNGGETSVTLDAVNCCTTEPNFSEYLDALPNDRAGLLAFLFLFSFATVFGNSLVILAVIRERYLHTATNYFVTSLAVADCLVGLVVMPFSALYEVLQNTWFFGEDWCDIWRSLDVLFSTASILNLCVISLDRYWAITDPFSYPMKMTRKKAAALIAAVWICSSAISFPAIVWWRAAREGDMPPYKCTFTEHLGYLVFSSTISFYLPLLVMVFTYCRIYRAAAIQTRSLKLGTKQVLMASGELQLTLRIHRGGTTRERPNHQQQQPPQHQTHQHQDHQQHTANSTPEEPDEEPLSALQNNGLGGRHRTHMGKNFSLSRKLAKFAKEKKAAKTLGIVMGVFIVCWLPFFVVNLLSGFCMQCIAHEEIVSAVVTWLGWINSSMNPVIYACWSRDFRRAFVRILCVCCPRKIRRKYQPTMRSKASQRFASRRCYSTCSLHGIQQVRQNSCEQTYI
Experiment: AaDOP2 antagonist screen of the LOPAC1280 library (HEK-CRELuc-Aadop2 cells, luminescence)
Assay type: cell-based
Details: read-out: % of the SCH23390 effect (percent inhibition of receptor response relative to the SCH23390 control)
Structures can show the parent of a compound that is named as a salt.
Kind request: treat 90% as inclusive, so inhibition at 10 µM at 90% or higher is T, anything lower is F.

INSERT INTO measurements (compound, label_value) VALUES
  ('CC(=O)[C@]1(O)Cc2c(O)c3c(c(O)c2[C@@H](O[C@H]2C[C@H](N)[C@H](O)[C@H](C)O2)C1)C(=O)c1ccccc1C3=O', 'F'),
  ('O=C1c2c(O)ccc(O)c2C(=O)c2c(NCCNCCO)ccc(NCCNCCO)c21', 'F'),
  ('CNCCC=C1c2ccccc2CCc2ccccc21 [Compound 863, Nortriptyline hydrochloride]', 'T'),
  ('CN1CCC(=C2c3ccccc3CC(=O)c3sccc32)CC1 [Compound 687, Ketotifen fumarate]', 'T'),
  ('Oc1cc(O)cc(/C=C/c2ccc(O)c(O)c2)c1 [Compound 916, Piceatannol, reference compound]', 'T'),
  ('O=C1Cc2c([nH]c3ccc(Br)cc23)-c2ccccc2N1', 'F'),
  ('OCCN1CCN(CCCN2c3ccccc3Sc3ccc(Cl)cc32)CC1', 'T'),
  ('CC[C@H]1CN2CCc3cc(OC)c(OC)cc3[C@@H]2C[C@@H]1C[C@H]1NCCc2cc(OC)c(OC)cc21 [Compound 478, Emetine dihydrochloride hydrate]', 'F');
